- Test system: CD2F1 mice, L1210 leukemia ip, survival T/C
- method: NCI In Vivo Anticancer Drug Screen. Data for tumor model L1210 Leukemia (intraperitoneal) in CD2F1 (CDF1) mice
- recorded.conditions: endpoint: mean survival time; dose: 25.0 mg/kg/injection; schedule: Q01DX009 (ip); vehicle: Klucel (hydroxypropylcellulose) (HPC); higher = longer survival
Inconclusive results and toxic doses are left out.
endpoint.label: T/C

Some entries whose results are on file:
INSERT INTO assay_data (compound, value) VALUES
  ('CC/C(=C/c1ccc(OC)cc1)[N+](=O)[O-]', '102 % of control'),
  ('CCCCCCCCCCCCCCCC(=O)N(C(C)CCCN(CC)CC)C(C)CCCN(CC)CC (stereo not drawn)', '91 % of control'),
  ('CC(=O)OC1(C)CC(C)(C)N=N1 (stereo not drawn)', '97 % of control');

Enter recorded T/C with CD2F1 mice, L1210 leukemia ip, survival T/C for O=C(/C=C(\CN1CCCCC1)c1ccccc1)c1ccccc1 here.
95 % of control

Report value: T/C, system: CD2F1 mice, L1210 leukemia ip, survival T/C, compound: CC(=O)OCC(C)CCC(C)C(C)C1C(C)CC2C3CC=C4CC(OC(C)=O)CCC4(C)C3CCC21C (stereo not drawn)
101 % of control

Give CD2F1 mice, L1210 leukemia ip, survival T/C T/C for the following compound: CC1(CC(C)(C)c2ccccc2)OCCO1
100 % of control

GET T/C | system: CD2F1 mice, L1210 leukemia ip, survival T/C | item: O=C1OC(=O)c2ccccc21
91 % of control

Write T/C of CS(=O)(=O)OCCN(CCOS(C)(=O)=O)c1ccc(C=Nc2ccc(-c3csc(COc4ccccc4)n3)cc2)cc1 ; system used: CD2F1 mice, L1210 leukemia ip, survival T/C
110 % of control

---

# T/C listing for each entry below
- Tested on: CD2F1 mice, L1210 leukemia ip, survival T/C
- method: NCI In Vivo Anticancer Drug Screen. Data for tumor model L1210 Leukemia (intraperitoneal) in CD2F1 (CDF1) mice
- recorded.conditions: endpoint: mean survival time; dose: 100.0 mg/kg/injection; schedule: Q01DX009 (ip); vehicle: saline sonified; higher = longer survival
Toxic doses and inconclusive results are not listed.

Examples with their reported T/C follow.
INSERT INTO measurements (compound, endpoint_label, value) VALUES
  ('CC1=NN(c2cccc(S(=O)(=O)O)c2)C(=O)C1', 'T/C', '88 % of control'),
  ('COc1cc2c(cc1OC)C(CCNC(=O)CCCO)NCC2 (stereo unspecified)', 'T/C', '98 % of control'),
  ('Cc1ccnc(NC2=CC(=O)C(=O)c3ccccc32)c1', 'T/C', '108 % of control'),
  ('O=C(CC([Se]c1ccccc1)c1ccccc1)c1ccccc1 (stereo unspecified)', 'T/C', '102 % of control'),
  ('CN1CCN(CCSSCCN2CCN(C)CC2)CC1', 'T/C', '97 % of control');

In the following, a different compound is considered.
Lab note: record T/C of C=CCS(=O)(=O)O tested on CD2F1 mice, L1210 leukemia ip, survival T/C.
96 % of control

---

- Test system: CD2F1 mice, L1210 leukemia ip, survival T/C
- method: NCI In Vivo Anticancer Drug Screen. Data for tumor model L1210 Leukemia (intraperitoneal) in CD2F1 (CDF1) mice
- recorded.conditions: endpoint: mean survival time; dose: 50.0 mg/kg/injection; schedule: Q04DX002 (ip); vehicle: saline; higher = longer survival
Toxic doses and inconclusive results are not listed.
endpoint.label: T/C

INSERT INTO results (compound, value) VALUES
  ('CCCCS(=O)(=O)F', '101 % of control'),
  ('CC1(C)SC2C(NC(=O)Cc3ccccc3)C(=O)N2C1C(=O)O (stereo not given)', '100 % of control'),
  ('CNNC(=O)OC', '98 % of control');

Please look at this compound and report its T/C: CC1CC(C(=O)O)C(S(N)(=O)=O)C1 (stereo not given)
97 % of control

Using known records, supply T/C for NCCC(O)C(=O)NC1CC(N)C(OC2OC(CN)C(O)C(O)C2N)C(OC2OC(CO)C(O)C2O)C1O (stereo not given)
98 % of control

---

- Test system: CD2F1 mice, L1210 leukemia ip, survival T/C
- method: NCI In Vivo Anticancer Drug Screen. Data for tumor model L1210 Leukemia (intraperitoneal) in CD2F1 (CDF1) mice
- recorded.conditions: endpoint: mean survival time; dose: 12.5 mg/kg/injection; schedule: Q01DX009 (ip); vehicle: Klucel (hydroxypropylcellulose) (HPC); higher = longer survival
Inconclusive results and toxic doses are left out.
Quick list: T/C per entry.

Here is how some compounds turned out for T/C.
INSERT INTO assay_data (structure, endpoint_label, value) VALUES
  ('C#CCN(C)/N=N/c1nc[nH]c1C(N)=O', 'T/C', '123 % of control'),
  ('O=C(O)c1ccc([As](=O)(O)O)cc1', 'T/C', '98 % of control'),
  ('CCOP(=O)(OCC)ON1C(=O)c2cccc3cccc(c23)C1=O', 'T/C', '95 % of control'),
  ('O=c1[nH]cnc2n[nH]nc12', 'T/C', '116 % of control'),
  ('COc1c(CNC(=O)CCl)cc2[nH]c(C)cc2c1CNC(=O)CCl', 'T/C', '98 % of control');

The record that follows has no T/C shown yet.
Fill in reported T/C for this entry: CS(=O)(=O)OCCN(CCOS(C)(=O)=O)c1ccc(C=Nc2ccc(-c3csc(COc4ccccc4)n3)cc2)cc1
119 % of control

---

- Test system: CD2F1 mice, L1210 leukemia ip, survival T/C
- method: NCI In Vivo Anticancer Drug Screen. Data for tumor model L1210 Leukemia (intraperitoneal) in CD2F1 (CDF1) mice
- recorded.conditions: endpoint: mean survival time; dose: 25.0 mg/kg/injection; schedule: Q01DX009 (ip); vehicle: other; higher = longer survival
Toxic doses and inconclusive results are not listed.
endpoint.label: T/C

Observe how each entry below is paired with its result.
INSERT INTO assay_data (compound, target_entity, value) VALUES
  ('COc1cccc2c1C(=O)c1c(OC)c(C)cc(OC)c1C2=O', 'CD2F1 mice, L1210 leukemia ip, survival T/C', '110 % of control'),
  ('O=C(N/N=C/c1ccc([N+](=O)[O-])cc1[N+](=O)[O-])c1ccncc1', 'CD2F1 mice, L1210 leukemia ip, survival T/C', '91 % of control'),
  ('CCCC1(CCC)c2ccccc2C(Cl)(CCl)c2ccccc21', 'CD2F1 mice, L1210 leukemia ip, survival T/C', '94 % of control'),
  ('[O-]c1cc2c3c(c1)c1cc4c(cc1c[n+]3C=C2)OCO4', 'CD2F1 mice, L1210 leukemia ip, survival T/C', '118 % of control');

Complete the entry with T/C for COc1ccccc1NC(=O)NC1C(OC(C)=O)OC(COC(C)=O)C(OC(C)=O)C1OC(C)=O (stereo not drawn)
94 % of control

For CCC(/C=C/C(C)C1CCC2C3CC=C4CC(O)CCC4(C)C3CCC12C)C(C)C (stereo not drawn) (tested in a mixture with another compound) , write its T/C.
94 % of control

Indicate its recorded T/C; the compound in question is COc1ccc2nc3cc(Cl)ccc3c(Nc3cccc(NC(C)=O)c3)c2n1
102 % of control

Query T/C for CC(C#N)(Nc1ccccc1)c1ccco1 (stereo not drawn)
94 % of control

---

Recorded T/C for the following molecules
- Tested on: CD2F1 mice, L1210 leukemia ip, survival T/C
- method: NCI In Vivo Anticancer Drug Screen. Data for tumor model L1210 Leukemia (intraperitoneal) in CD2F1 (CDF1) mice
- recorded.conditions: endpoint: mean survival time; dose: 400.0 mg/kg/injection; schedule: Q01DX009 (ip); vehicle: saline with Tween-80; higher = longer survival
- Experimental: The antitumor activity of compounds was measured in mice bearing transplantable tumors. Survival or tumor size were measured and the results are expressed as the measurement made in the treated group (T) divided by the measurement made in the vehicle treated control group (C). The tumor model used in this assay is L1210 Leukemia (intraperitoneal) in CD2F1 (CDF1) mice
Toxic doses and inconclusive results are not listed.

Please review the following examples before continuing.
INSERT INTO measurements (molecule, value) VALUES
  ('OCC1OC(Nc2ncnc3nc[nH]c23)C(O)C1O (stereo unspecified)', '100 % of control'),
  ('CC(=O)Nc1cccc(C(C)=O)c1[N+](=O)[O-]', '93 % of control'),
  ('CCc1ncc(C(O)c2ccc(Cl)cc2)n1Cc1ccccc1 (stereo unspecified)', '92 % of control'),
  ('CC(=O)/C(N=Nc1ccc(S(=O)(=O)c2ccc(N=N/C(C(C)=O)=C(/C)O)cc2)cc1)=C(\C)O', '102 % of control'),
  ('CN(CCl)S(=O)(=O)c1ccccc1', '102 % of control');

Report T/C, nothing else, for this molecule: COC(=O)c1cccc(OC)c1OC
98 % of control
